All figures here come from patent US6673938B1.

# System: Monocotyledonous and dicotyledonous test plants
# assay: Herbicidal action before emergence of the plants (pre-emergence action)
# Type: in vivo
# test-settings: Ipomoea; 2000 g/ha; evaluated after 3 weeks; nine-step scale
measured-metric: pre-emergence action, Ipomoea
Reply briefly: the number, and no unit.

Some compounds with recorded pre-emergence action, Ipomoea:
In [3]: df
Out[3]:
                                   compound                           subject_of_test  readout_number
0  Cc1nc(C(F)(F)F)ccc1C(=O)C1=C(O)CC(C)(C)CC1=O  Monocotyledonous and dicotyledonous test plants               2
1  COCc1nc(C(F)(F)F)ccc1C(=O)C1=C(O)C(C)CCC1=O (centres unmarked)  Monocotyledonous and dicotyledonous test plants               3
2  Cc1nc(C(F)(F)F)ccc1C(=O)C1=C(O)C(C)(S(C)(=O)=O)C2CC2C1=O (centres unmarked)  Monocotyledonous and dicotyledonous test plants               3
3  Cc1nc(C(F)(F)F)ccc1C(=O)C1=C(O)C(C)(C)OC(C)(C)C1=O  Monocotyledonous and dicotyledonous test plants               1
4  Cc1nc(C(F)(F)F)ccc1C(=O)C1=C(O)C(C)(C)OCC1=O  Monocotyledonous and dicotyledonous test plants               2
5  Cc1nc(C(F)(F)F)ccc1C(=O)C1=C(O)C(C)(C)C(C)CC1=O (centres unmarked)  Monocotyledonous and dicotyledonous test plants               2
6  Cc1nc(C(F)(F)F)ccc1C(=O)C1=C(O)C(C(C)C)CC(C)C1=O (centres unmarked)  Monocotyledonous and dicotyledonous test plants               4
7  CCc1nc(C(F)(F)F)ccc1C(=O)C1=C(O)C(C)(C)CCC1=O  Monocotyledonous and dicotyledonous test plants               3

[in] GET /values?readout=pre-emergence action, Ipomoea&item= Cc1nc(C(F)(F)F)ccc1C(=O)C1=C(O)C(C)CC(C)C1=O (stereo not drawn) [A2-B46 (cis)]
[out] 2

[in] Also, COCc1nc(C(F)(F)F)ccc1C(=O)C1=C([S+]([O-])c2ccccc2)CCCC1=O (centres unmarked) please.
[out] 3

[in] Also, CCc1nc(C(F)(F)F)ccc1C(=O)C1=C(O)CCCC1=O please.
[out] 2

* * *

# System: Monocotyledonous and dicotyledonous test plants
# assay: Herbicidal action before emergence of the plants (pre-emergence action)
# Type: in vivo
# test-settings: Ipomoea; 2000 g/ha; evaluated after 3 weeks; nine-step scale
measured-metric: pre-emergence action, Ipomoea
Reply briefly: the number, and no unit.

Some molecules with recorded pre-emergence action, Ipomoea:
                                   molecule                measured_metric  readout_number
0  Cc1nc(C(F)(F)F)ccc1C(=O)C1=C(O)C(C)(C)CC(C)(C)C1=O [Compound A2-B90]  pre-emergence action, Ipomoea               1
1  Cc1nc(C(F)(F)F)ccc1C(=O)C1=C(O)C(C)(S(C)(=O)=O)CCC1=O (centres unmarked) [Compound A2-B31]  pre-emergence action, Ipomoea               3
2  Cc1nc(C(F)(F)F)ccc1C(=O)C1=C(O)C(C)CCC1=O (centres unmarked) [Compound A2-B2]  pre-emergence action, Ipomoea               1
3  CSC1(C)CC(C)C(=O)C(C(=O)c2ccc(C(F)(F)F)nc2C)=C1O (centres unmarked) [Compound A2-B73]  pre-emergence action, Ipomoea               4
4  Cc1nc(C(F)(F)F)ccc1C(=O)C1=C(O)C(C)(C)CC2(CCC2)C1=O [Compound A2-C147]  pre-emergence action, Ipomoea               4

Please find the next molecule below.
[in] GET /values?readout=pre-emergence action, Ipomoea&item= CCC1(C)CCC(=O)C(C(=O)c2ccc(C(F)(F)F)nc2C)=C1O (centres unmarked) [Compound A2-B25]
[out] 3

* * *

// reported pre-emergence action, Cyperus for each item listed
# Tested on: Monocotyledonous and dicotyledonous test plants
# assay: Herbicidal action before emergence of the plants (pre-emergence action)
# Format: in vivo
# test-settings: Cyperus; 2000 g/ha; evaluated after 3 weeks; nine-step scale

[in] GET /values?readout=pre-emergence action, Cyperus&item= Cc1nc(C(F)(F)F)ccc1C(=O)C1=C(O)C(C)(C)CC(C)(C)C1=O [Compound A2-B90]
[out] 1

[in] Also, Cc1nc(C(F)(F)F)ccc1C(=O)C1=C(O)C(C)(C(C)C)CC(C)(C)C1=O (stereo not shown) [Compound A2-B93] please.
[out] 2

[in] Also, CCOC(=O)C1(C)CCC(=O)C(C(=O)c2ccc(C(F)(F)F)nc2C)=C1O (stereo not shown) [Compound A2-B35] please.
[out] 2

[in] Also, Cc1nc(C(F)(F)C(F)(F)F)ccc1C(=O)C1=C(O)CCCC1=O [Compound A34-B1] please.
[out] 1

* * *

// reported pre-emergence action, Solanum for each item listed
# System: Monocotyledonous and dicotyledonous test plants
# assay: Herbicidal action before emergence of the plants (pre-emergence action)
# Assay type: in vivo
# test-settings: Solanum; 2000 g/ha; evaluated after 3 weeks; nine-step scale
Reply briefly: the number, and no unit.

Some compounds with recorded pre-emergence action, Solanum:
In [3]: df
Out[3]:
                                   compound                measured_metric  readout_number
0  COC(=O)C1(OC)CCC(=O)C(C(=O)c2ccc(C(F)(F)F)nc2C)=C1O (centres unmarked) [Compound A2-B1067]  pre-emergence action, Solanum               3
1  CCN(CC)CC.Cc1nc(C(F)(F)F)ccc1C(=O)C1=C(O)CCCC1=O [Compound A2-B1100]  pre-emergence action, Solanum               1
2  Cc1nc(C(F)(F)F)ccc1C(=O)C1=C(O)C(C)(S(C)(=O)=O)C2CC2C1=O (centres unmarked) [Compound A2-D115]  pre-emergence action, Solanum               2
3  Cc1cc(C(=O)C2=C(O)C(C)(C)CCC2=O)c(C)nc1C(F)(F)F [Compound A184-B24]  pre-emergence action, Solanum               1
4  Cc1nc(C(F)(F)Cl)ccc1C(=O)C1=C(O)CCCC1=O [Compound A94-B1]  pre-emergence action, Solanum               1

[in] GET /values?readout=pre-emergence action, Solanum&item= Cc1nc(C(F)(F)F)ccc1C(=O)C1=C(O)C(C)C(C)(C)CC1=O (centres unmarked) [Compound A2-B1095]
[out] 1

[in] Also, Cc1nc(C(F)(F)F)ccc1C(=O)C1=C(O)C(C)(C(C)C)CC(C)(C)C1=O (centres unmarked) [Compound A2-B93] please.
[out] 1

[in] Also, Cc1nc(C(F)(F)F)ccc1C(=O)C1=C(O)C(C)CC2(CC2)C1=O (centres unmarked) [Compound A2-C2] please.
[out] 1

* * *

// reported Post-emergence action: Echino. (score, nine-step scale) for each item listed
# System: Monocotyledonous and dicotyledonous test plants
# assay: Post-emergence herbicidal action
# Assay type: in vivo
# test-settings: Echino.; 250 g/ha; sprayed at 4- to 6-leaf stage; evaluated after approximately 18 days
# Text: […]
Reply briefly: the number, and no unit.

Some compounds with recorded Post-emergence action: Echino. (score, nine-step scale):
>>> print(df.to_string())
                                   compound  readout_number
0  COCc1nc(C(F)(F)F)ccc1C(=O)C1=C(O)C(C)C2CC2C1=O (stereo not shown) [Compound A8-D109]               3
1  COCc1nc(C(F)(F)F)ccc1C(=O)C1=C(O)C(C)(C)OCC1=O [Compound A8-B552]               3
2  CCOC(=O)OCc1nc(C(F)(F)F)ccc1C(=O)C1=C(O)C(C)(C)C(=O)C(C)(C)C1=O [Compound A1208-B354]               2

Please find the next compound below.
[in] GET /values?readout=Post-emergence action: Echino. (score, nine-step scale)&item= COCc1nc(C(F)(F)F)ccc1C(=O)C1=C(O)CC2CCCC2C1=O (stereo not shown) [Compound A8-D36]
[out] 2

* * *

# Tested on: Monocotyledonous and dicotyledonous test plants
# assay: Herbicidal action before emergence of the plants (pre-emergence action)
# Type: in vivo
# test-settings: Sinapis; 2000 g/ha; evaluated after 3 weeks; nine-step scale
measured-metric: pre-emergence action, Sinapis
Reply briefly: the number, and no unit.

>>> df
                                   compound  readout_number
0  CCc1nc(C(F)(F)F)ccc1C(=O)C1=C(O)CCCC1=O [Compound A3-B1]               2
1  COCc1nc(C(F)(F)F)ccc1C(=O)C1=C(O)C(C)CCC1=O (stereo not drawn) [Compound A8-B2]               2
2  Cc1nc(C(F)(F)F)ccc1C(=O)C1=C(O)C(C)(C(C)C)CC(C)(C)C1=O (stereo not drawn) [Compound A2-B93]               2
3  Cc1nc(C(F)(F)F)ccc1C(=O)C1=C(O)C(C)(C)CC2(CC2)C1=O [Compound A2-C24]               1
4  Cc1nc(C(F)(F)Cl)ccc1C(=O)C1=C(O)CCCC1=O [Compound A94-B1]               1

[in] GET /values?readout=pre-emergence action, Sinapis&item= Cc1nc(C(F)(F)F)ccc1C(=O)C1=C(O)CCC2(CC2)C1=O [Compound A2-C1]
[out] 2
